Molecular target: human TPO receptor (hTPOR) (Homo sapiens)
Construct: expressed in transfected cells; host or cells: BaF-B03 (murine IL-3 dependent cell line)
Sequence (P40238 26-635): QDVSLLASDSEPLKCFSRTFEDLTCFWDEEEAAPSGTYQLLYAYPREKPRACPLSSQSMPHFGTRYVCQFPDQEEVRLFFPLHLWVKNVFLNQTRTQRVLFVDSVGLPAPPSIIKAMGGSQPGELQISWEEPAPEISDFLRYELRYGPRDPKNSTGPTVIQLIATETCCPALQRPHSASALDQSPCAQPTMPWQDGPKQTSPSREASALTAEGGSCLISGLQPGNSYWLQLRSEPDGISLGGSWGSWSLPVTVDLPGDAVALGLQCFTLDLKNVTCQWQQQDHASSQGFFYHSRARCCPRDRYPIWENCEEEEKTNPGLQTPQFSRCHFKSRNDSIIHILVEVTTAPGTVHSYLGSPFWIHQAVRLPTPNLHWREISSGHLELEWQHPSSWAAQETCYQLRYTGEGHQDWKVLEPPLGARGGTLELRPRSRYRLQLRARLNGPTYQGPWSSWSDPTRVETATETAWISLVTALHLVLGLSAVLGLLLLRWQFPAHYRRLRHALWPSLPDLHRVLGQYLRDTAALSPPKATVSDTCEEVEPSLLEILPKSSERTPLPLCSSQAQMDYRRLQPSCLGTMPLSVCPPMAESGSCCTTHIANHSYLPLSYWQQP
Assay: Thrombopoietic activity: proliferation of TPO dependent BaF/hTPOR cells (WST-1, absorbance at 450 nm)
Format: cell-based
Conditions: 20 h + 4 h WST-1, ED50 = half concentration of the concentration showing the maximum thrombopoietic activity, Table 1
Listed here: items and their measured EC50.

{"molecule": "COC(c1cccc(-c2csc(NC(=O)c3cc(F)c(C=C(C)C(=O)O)c(F)c3)n2)c1F)C(C)(C)C (stereo not drawn)", "tested.system": "human TPO receptor (hTPOR) (Homo sapiens)", "EC50": "1 nM"}
{"molecule": "CCCCCCCC(OC)c1cccc(-c2csc(NC(=O)c3cc(Cl)c(C=C(C)C(=O)O)c(Cl)c3)n2)c1F (stereo not drawn)", "tested.system": "human TPO receptor (hTPOR) (Homo sapiens)", "EC50": "0.78 nM"}
{"molecule": "CCCCCOC(c1cccc(-c2csc(NC(=O)c3cc(F)c(/C=C(\\C)C(=O)O)c(F)c3)n2)c1OC)C1CCCCC1 (stereo not drawn)", "tested.system": "human TPO receptor (hTPOR) (Homo sapiens)", "EC50": "1.29 nM"}
